# Test system: HS 578T breast
# Assay name: NCI-60 one-dose screen, 48 h (100 = growth as untreated, 0 = no growth, -100 = all killed)
# Recorded conditions: 10 µM unless noted
About 83,000 compounds went through this panel and 20% of them were active in at least one assay; those are over-represented in the sample as a whole.
Use growth to assign classes; range list: low band: < 50%; middle band: ≥ 50% and < 90%; high band: ≥ 90%

Q. Textbook exercise: identify the category of the compound given here, "NC(N)=N/N=C(/c1ccccc1)c1ccc(N)cc1" , according to its measured value.
A. high band

Q. Form field 'band' for "COc1cc(-c2ccc(-c3ccc(C(=N)N)nc3)s2)cc(OC)c1OC"
A. middle band

Q. Kindly state the category for this compound: "CCNCCNc1cc(-c2cccc(C(F)(F)F)c2)c(C#N)c2nc3ccccc3n12"
A. low band

Q. The entry to classify is "CCNCCNc1cc(-c2ccc(C#N)cc2)c(C#N)c2nc3ccccc3n12" ; which class holds it?
A. low band

Q. Which class does "Cc1cc(NS(=O)(=O)c2ccccc2)c(OS(=O)(=O)c2ccccc2)cc1C" fall in?
A. high band

Q. Where would "Fc1ccc(Nc2ccc3cc(OCCCN4CCOCC4)ccc3n2)cc1F" land among the classes by reported growth?
A. low band

Q. Class (by measured growth) for "CC(=O)Nc1ccc(C(=O)/C=C/c2ccccc2)cc1"
A. high band

Q. Lab log: "c1ccc(-c2oc3ccccc3c2-c2ccccc2)cc1" — assign growth category
A. high band

Q. Could you tell me which band "COc1ccc(-c2cc(-c3cc(OC)ccc3OC)[nH]c(=O)c2C#N)cc1" belongs to?
A. low band

Q. State the band of "c1ccc2c(c1)nc(-n1ccnc1)c1nc3ccccc3n12"
A. middle band

Q. // bin(item) where item = "Cc1nc(-c2ccccc2)cc2c(O)c(C(=O)N/N=C/c3ccc(N(C)C)cc3)[nH]c(=O)c12"
A. middle band

Q. Category lookup for the compound "CCNCCNc1cc(-c2ccc(F)cc2)c(C#N)c2nc3ccccc3n12"
A. middle band

Q. Note: place this compound into its band. Item: "C(=C\c1nc2ccccc2[nH]1)/c1nc2ccccc2[nH]1"
A. high band

Q. Class? Entry: "CNC=O"
A. low band

Q. # bin lookup: classify "O=C1C2=C(CCN(Cc3ccccc3)C2)N2CCN=C2N1Cc1ccc(F)cc1F" by its growth
A. low band

Q. Class label required: "Cc1nc(C)c(-c2nn3c(-c4cccc(F)c4)nnc3s2)s1"
A. high band

Q. Note: place this compound into its band. Item: "CCCCCCCCN(CCCCCCCC)C(=N)c1ccnc2ccccc12"
A. low band

Q. Could you tell me which band O=C(/C=C/C12c3ccccc3C(c3ccccc31)C1C(=O)N(c3ccccc3)C(=O)C12)c1ccc(Cl)cc1 (configuration not stated) belongs to?
A. low band

Q. Consider "COc1cc2oc3cc(C)oc(=O)c3c2cc1OC" . To which growth class does it belong?
A. high band

Origin of measurements: PubChem BioAssay (NCI)
